Sourced from patent US7858635B2

Target: M4 muscarinic receptor (Homo sapiens, UniProt P08173)
Construct: expressed in transfected cells; host or cells: CHO cells (M4-CHO, under puromycin, zeocin and blasticidin selection)
Sequence (P08173 1-479): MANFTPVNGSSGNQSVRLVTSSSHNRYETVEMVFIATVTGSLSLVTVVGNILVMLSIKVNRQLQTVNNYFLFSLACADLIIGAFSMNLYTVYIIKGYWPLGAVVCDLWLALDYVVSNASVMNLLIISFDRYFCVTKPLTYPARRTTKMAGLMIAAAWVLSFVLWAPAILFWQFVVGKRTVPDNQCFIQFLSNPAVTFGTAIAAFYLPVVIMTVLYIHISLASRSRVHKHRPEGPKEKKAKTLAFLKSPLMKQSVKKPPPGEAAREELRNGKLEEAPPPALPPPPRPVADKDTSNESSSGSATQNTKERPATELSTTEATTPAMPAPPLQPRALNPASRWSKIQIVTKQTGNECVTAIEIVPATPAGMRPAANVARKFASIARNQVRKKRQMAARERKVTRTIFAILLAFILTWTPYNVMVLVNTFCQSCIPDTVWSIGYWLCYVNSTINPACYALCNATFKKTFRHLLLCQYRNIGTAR
Experiment: Functional mobilization of intracellular calcium (FLIPR, Fluo-3), M4-CHO cells
Type: cell-based
Conditions: compound nos. 1-454; 100% efficacy is the maximum response obtained with the Carbachol control; read-out: M4 Efficacy
Exercise: for every item that follows, state its recorded Emax.

Solved entries (count: 5):
• Clc1ccc2c(c1)C1(CCO2)CCN([C@@H]2C[C@@H]3CC[C@@H]2C3)CC1 [compound 369] = > 70%
• CCOC(=O)N1CCC(N2CCC3(CC2)CN(C(=O)OCCOC)c2ccc(F)cc23)CC1 [compound 38] = > 70%
• Clc1ccc2c(c1)C1(CCO2)CCN(C[C@@H]2C[C@H]3C=C[C@H]2C3)CC1 [compound 164] = > 70%
• CN(C)C(=O)N1CC2(CCN(C3CCN(C(=O)O[C@@H]4CCOC4)CC3)CC2)c2cc(F)ccc21 [compound 209] = < 55%
• c1ccc2c(c1)NCC21CCN(CC2CCCCC2)CC1 [compound 342] = 55 to 70%

Batch lookup, Emax per entry.
1. COCCOC(=O)N1CCCC(N2CCC3(CC2)CN(C(C)=O)c2ccc(F)cc23)CC1 (stereo not shown) [compound 65]
2. CCOC(=O)N1C2CCC1CC(N1CCC3(CC1)CN(S(=O)(=O)c1ccc(F)cc1)c1ccc(F)cc13)C2 (stereo not shown) [compound 40]
3. COCCOC(=O)N1CC2(CCN(C3CC4CCC(C3)N4C(=O)OC3CCC3)CC2)c2cc(F)ccc21 (stereo not shown) [compound 195]
4. CCCOC(=O)N1CCC(N2CCC3(CC2)CN(C(C)=O)c2ccc(F)cc23)CC1 [compound 79]
5. CCOC(=O)C1CCC(N2CCC3(CC2)CN(C(C)=O)c2ccc(F)cc23)CC1 (stereo not shown) [compound 228]
6. COCCOC(=O)N1CC2(CCN(C3CC4CCC(C3)N4C(=O)O[C@@H]3CCOC3)CC2)c2cc(F)ccc21 (stereo partly shown) [compound 304]
7. COC(=O)N1CCC(CN2CCC3(CC2)CN(C(C)=O)c2ccc(F)cc23)CC1 [compound 129]
8. CC(=O)N1CC2(CCN(C3CCN(C(=O)OC(C)C)CC3)CC2)c2cc(C)ccc21 [compound 380]

1: < 55%; 2: > 70%; 3: < 55%; 4: < 55%; 5: < 55%; 6: < 55%; 7: < 55%; 8: 55 to 70%

// for each compound below, give its Emax
1. CCOC(=O)N1CCC(N2CCC3(CC2)CN(C(C)=O)c2ccc(-c4ccc(C#N)cc4)cc23)CC1 [compound 253]
2. CC(=O)N[C@H]1CC2(CCN(C3CCC(C)CC3)CC2)c2ccccc21 (stereo partly shown) [compound 280]
3. CCCCOC(=O)N1CC2(CCN(C3CCN(C(=O)OCC)CC3)CC2)c2cc(F)ccc21 [compound 220]

["55 to 70%", "55 to 70%", "< 55%"]
